Test system: Klebsiella pneumoniae
stated conditions: Concentration 20 uM; ASSAY_TEST Inhibition of Bacterial Growth; detection method Absorption (OD600); MEDIA CAMHB; plate type 384well; NBS; CORNING #3640; time 18 hr
Description: Antibacterial activity against Klebsiella pneumoniae MDR ATCC 70063 (CO-ADD:GN_003); MIC in CAMBH media using NBS plates, by OD(600)
Entries with a potency or affinity are not part of this list.
Please use rule met for Inhibition under 10% and rule not met for everything else, ties included.

Consider the following illustrative entries.
- COc1cc2c3c(c4ccc(OC)c(OC)c4c2cc1OC)CN1CCC[C@@H]1C3 [TYLOCREBRINE]: rule not met
- CC[C@]1(O)C[C@H]2CN(CCc3c([nH]c4ccccc34)[C@@](C(=O)OC)(c3cc4c(cc3OC)N(C=O)[C@H]3[C@@](O)(C(=O)OC)[C@H](OC(C)=O)[C@]5(CC)C=CCN6CC[C@]43[C@@H]65)C2)C1.O=S(=O)(O)O [VINCRISTINE SULFATE]: rule met
- CC(=O)Oc1ccc2ccc(=O)oc2c1OC(C)=O: rule met

# evaluate next
Lab note: Inhibition threshold 10%. Does this compound come in strictly under it? "COc1ccc2c(c1)O[C@H]1c3ccc(O)cc3OC[C@@H]21"
rule met

====

Test system: Cryptococcus neoformans
stated conditions: Concentration 20 uM; ASSAY_TEST Inhibition of Fungal Growth; detection method Resazurin; Absorption (OD600-OD570); plate type 384well; NBS; CORNING #3640
Description: Antifungal activity against Cryptococcus neoformans H99 ATCC 208821 (CO-ADD:FG_002); MIC in YNB media using NBS plates, by Resazurin OD(600-570)
Results with a measured potency or affinity are listed apart.
Please provide measured Inhibition for the entries that follow.
One number for each entry, in %.

Field: Inhibition. Fill in for each record below.
1. CC(C)=CCc1c2c(c3occ(-c4ccc(O)c(O)c4)c(=O)c3c1O)C=CC(C)(C)O2 [POMIFERIN]
2. C[C@@H]1C(=O)C[C@H]2C(C)(C)CCC[C@]2(C)[C@@]1(O)CCc1ccoc1
3. CC(=O)C1CCCC(=O)/C=C/C(=O)O1 (stereo not given)

1. -8.85
2. -4.02
3. -5.33

Field: Inhibition. Fill in for each record below.
1. CCC1OC(=O)C(C)C(OC2CC(C)(O)C(O)C(C)O2)C(C)C(O)C(C)(O)CC(C)C(=O)C(C)C(O)C1C (stereo not given)
2. C=C1C(=O)O[C@@H]2[C@H]3O[C@]3(C)CC/C=C(\C)CC[C@@H]12

[-12.63, -8.82]

====

Please provide measured Inhibition for the entries that follow.
Test system: Escherichia coli
assay protocol: Antibacterial activity against Escherichia coli ATCC 25922 (CO-ADD:GN_001); MIC in CAMBH media using NBS plates, by Resazurin F(560/590)
Type: functional
stated conditions: Concentration 20 uM, ASSAY_TEST Inhibition of Bacterial Growth, detection method Resazurin, Fluorescence (ex560/em590), MEDIA CAMHB, plate type 384well, CORNING #3640, time 18 hr
Answers are plain numbers, in %.

Worked examples, 4 molecules total:
* C=C1C(=O)O[C@@H]2[C@H]3O[C@]3(C)CC/C=C(\C)CC[C@@H]12 | 5.09
* CC1(C)CCCC2(C)C3=C(CCC12)C(=O)OC3 (stereo not drawn) | 1.76
* CCC1OC(=O)C(C)C(OC2CC(C)(O)C(O)C(C)O2)C(C)C(O)C(C)(O)CC(C)C(=O)C(C)C(O)C1C (stereo not drawn) | 7.74
* COc1ccc2c(c1OC)C(=O)O[C@@H]2[C@H]1c2c(cc3c(c2OC)OCO3)CCN1C [NOSCAPINE] | 1.19

Field: Inhibition. Fill in for each record below.
1. CC(=O)Oc1ccc2ccc(=O)oc2c1OC(C)=O
2. COc1cc2c3c(c4ccc(OC)c(OC)c4c2cc1OC)CN1CCC[C@@H]1C3 [TYLOCREBRINE]
3. COc1cc([C@@H]2c3cc4c(cc3[C@@H](OC3OC5CO[C@@H](c6cccs6)OC5C(O)C3O)[C@H]3COC(=O)[C@H]23)OCO4)cc(OC)c1O (stereo partly drawn)
4. C/C=C/c1cc2c(c(=O)o1)C(=O)[C@@H](O)[C@H](C)O2
5. COc1c2c(cc3c1[C@@H]1Oc4c(ccc(O)c4CC=C(C)C)[C@@H]1CO3)OC(C)(C)C=C2
6. COc1c2occc2cc2ccc(=O)oc12 [METHOXSALEN]

1: 2.34; 2: 1.54; 3: 1.68; 4: 14.21; 5: 1.21; 6: 2.12

Field: Inhibition. Fill in for each record below.
1. COC(=O)[C@@H]1[C@H]2C[C@@H]3c4[nH]c5ccccc5c4CCN3C[C@@H]2CC[C@@H]1O
2. CCCCCc1cc(O)cc2c1Oc1cc(O)cc(C(=O)CCCC)c1C(=O)O2

[11.73, 9.72]

Field: Inhibition. Fill in for each record below.
1. CC(C)=CC(=O)OC1C2C(C)C(=O)OC2C(O)C(C)C2C=CC(=O)C21C (stereo not drawn)
2. O=c1oc2cc(O)ccc2c2oc3cc(O)ccc3c12 [COUMESTROL]

1: -1.23; 2: 2.17

Field: Inhibition. Fill in for each record below.
1. CCCCCC[C@H]([C@H](C)O)n1cnc2c(N)ncnc21.Cl
2. CC(=O)CCCCn1c(=O)c2c(ncn2C)n(C)c1=O [PENTOXIFYLLINE]

7.31
9.18

Field: Inhibition. Fill in for each record below.
1. COc1ccc2c(c1)O[C@H]1c3ccc(O)cc3OC[C@@H]21
2. CC1(C)C(=O)N2c3ccccc3C3(CC(N4C(=O)c5ccccc5C4=O)C(=O)O3)C2N1C(=O)OCc1ccccc1 (stereo not drawn)

1. 8.35
2. 1.59

====

Test system: Candida albicans
stated conditions: 20 µM
Description: Antifungal activity against Candida albicans ATCC 90028 (CO-ADD:FG_001); MIC in YNB media using NBS plates, by OD630
Measured potencies and affinities stand elsewhere.
parameter measured: Inhibition (%)
One number for each entry, in %.

Field: Inhibition. Fill in for each record below.
1. COc1cc2c3c(c4ccc(OC)c(OC)c4c2cc1OC)CN1CCC[C@@H]1C3
2. COc1cc2c(c(OC)c1OC)-c1ccc(OC)c(=O)cc1[C@@H](NC(C)=O)CC2
3. CC(C)=CCc1c2c(c3occ(-c4ccc(O)c(O)c4)c(=O)c3c1O)C=CC(C)(C)O2
4. COC(=O)C1C(O)CCC2CN3CCc4c([nH]c5ccccc45)C3CC21 (centres undefined)

1. -1.43
2. -0.28
3. -6.81
4. 1.54

Field: Inhibition. Fill in for each record below.
1. CC(=O)O.COc1ccc2c(=O)oc3c(OC)cc(CCN(C)C)c4c(=O)oc1c2c34
2. CC(=O)CCCCn1c(=O)c2c(ncn2C)n(C)c1=O

-2.47
4.24

====

Please provide measured Inhibition for the entries that follow.
Tested on: Escherichia coli
assay protocol: Antibacterial activity against Escherichia coli ATCC 25922 (CO-ADD:GN_001); MIC in CAMBH media using NBS plates, by Resazurin F(560/590)
Assay type: functional
stated conditions: Concentration 20 uM, ASSAY_TEST Inhibition of Bacterial Growth, detection method Resazurin, Fluorescence (ex560/em590), MEDIA CAMHB, plate type 384well, CORNING #3640, time 18 hr
Answer format: value, then unit.

Worked examples, 5 compounds total:
- CN1CCc2cc3c(cc2C(=O)Cc2ccc4c(c2C1)OCO4)OCO3.Cl [PROTOPINE HYDROCHLORIDE]: 3%
- CCC1NC(=O)C(NC(=O)c2ncccc2O)C(C)OC(=O)C(c2ccccc2)NC(=O)C2CC(=O)CCN2C(=O)C(Cc2ccccc2)N(C)C(=O)C2CCCN2C1=O (stereo not given): 1.18%
- COc1ccc(C2CC(=O)c3c(O)cc(OC4OC(CO)C(O)C(O)C4OC4OC(C)C(O)C(O)C4O)cc3O2)cc1O (stereo not given): 5.81%
- C[C@@H]1C(=O)C[C@H]2C(C)(C)CCC[C@]2(C)[C@@]1(O)CCc1ccoc1: 1.88%
- COc1c2occc2c(OC)c2c(=O)cc(C)oc12: 5.11%

Field: Inhibition. Fill in for each record below.
1. CC1(C)CC23C4COC(=O)C2CCC1C3CC4=O (stereo not given)
2. CC(C)c1ccc2c(c1)CC[C@H]1[C@](C)(C(=O)O)CCC[C@]21C [DEHYDROABIETIC ACID]
3. COC1/C=C\C=C(/C)C(=O)NC2=CC(=O)C(N)=C(CC(C)CC(OC)C(O)C(C)/C=C(\C)C1OC(N)=O)C2=O (stereo not given)
4. COc1c(O)cc2oc3cc(O)c(CC=C(C)C)c(O)c3c(=O)c2c1CC=C(C)C

1: -0.76%; 2: 7.61%; 3: -4.57%; 4: -3.06%

====

System: Acinetobacter baumannii
assay protocol: Antibacterial activity against Acinetobacter baumannii ATCC 19606 (CO-ADD:GN_034); MIC in CAMBH media using NBS plates, by Resazurin F(560/590)
Format: functional
stated conditions: Concentration 20 uM, ASSAY_TEST Inhibition of Bacterial Growth, detection method Resazurin, Fluorescence (ex560/em590), MEDIA CAMHB, plate type 384well, CORNING #3640, time 18 hr
parameter measured: Inhibition (%)
Give bare numbers, in %.

- CC(=O)O.COc1ccc2c(=O)oc3c(OC)cc(CCN(C)C)c4c(=O)oc1c2c34: -7.25

Field: Inhibition. Fill in for each record below.
1. CC(C)c1ccc2c(c1)CC[C@H]1[C@](C)(C(=O)O)CCC[C@]21C [DEHYDROABIETIC ACID]
2. O=c1oc2c(O)c(O)cc3c(=O)oc4c(O)c(O)cc1c4c23 [ELLAGIC ACID]

1. -10.79
2. -6.11

Inhibition reading for "C[C@@H]1C(=O)C[C@H]2C(C)(C)CCC[C@]2(C)[C@@]1(O)CCc1ccoc1" : -8.38
